Biological target: α1B Human Adrenergic Receptor (Homo sapiens, UniProt P35368)
Construct: The entire coding region of α1B (1563 bp); expressed in transfected cells
Sequence (P35368 whole entry): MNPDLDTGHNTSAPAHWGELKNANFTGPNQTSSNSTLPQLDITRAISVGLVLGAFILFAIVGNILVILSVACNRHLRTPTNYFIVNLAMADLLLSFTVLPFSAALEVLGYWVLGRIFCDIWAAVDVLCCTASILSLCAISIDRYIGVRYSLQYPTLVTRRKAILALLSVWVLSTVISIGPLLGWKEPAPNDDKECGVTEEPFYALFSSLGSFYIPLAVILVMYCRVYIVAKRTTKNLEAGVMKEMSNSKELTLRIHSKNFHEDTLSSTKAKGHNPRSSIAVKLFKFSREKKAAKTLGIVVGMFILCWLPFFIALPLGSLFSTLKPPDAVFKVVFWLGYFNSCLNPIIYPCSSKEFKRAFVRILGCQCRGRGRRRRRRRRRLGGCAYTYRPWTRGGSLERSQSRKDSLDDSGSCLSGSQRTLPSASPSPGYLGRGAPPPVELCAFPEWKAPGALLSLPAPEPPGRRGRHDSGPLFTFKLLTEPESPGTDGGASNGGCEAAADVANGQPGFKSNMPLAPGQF
Experiment: Radioligand binding, [3H]prazosin, cloned human α1B adrenergic receptor
Details: PKi alpha-1 1b, cloned human α1B receptor, LM(tk-) cell membranes
VALUE_KIND: Ki
Param answer (str): number followed by unit.

Lookup result for CCC1=C(C(=O)NCCOC)C(c2ccc([N+](=O)[O-])cc2)C(C(=O)NCCCN2CCC(c3ccccc3)(c3ccccc3)CC2)=C(COC)N1 (stereo not shown) [Example 247] ; measured Ki: 912 nM

Lookup result for CC(=O)C1=C(C)NC(COCCN)=C(C(=O)NCCCN2CCC(c3ccccc3)(c3ccccc3)CC2)C1c1ccc2c(c1)OCO2 (stereo not shown) [Example 239] ; measured Ki: 257 nM

Lookup result for CCC1=C(C(=O)OCCO)C(c2ccc([N+](=O)[O-])cc2)C(C(=O)NCCCN2CCC(c3ccccc3)(c3ccccc3)CC2)=C(COC)N1 (stereo not shown) [Example 246] ; measured Ki: 174 nM

Lookup result for CC(=O)C1=C(C)NC(COCCN)=C(C(=O)NCCCN2CCC(c3ccccc3)(c3ccccc3)CC2)C1c1ccc(F)cc1 (stereo not shown) [Example 242] ; measured Ki: 83.2 nM
